Experiment: in vitro
Type: cell-based
Conditions: African green monkey, CC50 (μM)
compounds and their reported CC50

See these solved cases before continuing.
COc1cccc(NC(C(=O)c2cn(C)nc2-c2ccccc2)c2ccccc2)c1 (centres unmarked) = > 126 µM
COc1cccc(NC(C(=O)c2nn(C)cc2-c2ccccc2)c2cccnc2)c1 (centres unmarked) = > 125 µM

// COc1cccc(NC(C(=O)c2nn(C)cc2-c2ccccc2)c2ccc(F)cc2)c1 (centres unmarked) : CC50 value = > 120 µM

// CC50 lookup, compound = COc1cccc(NC(C(=O)c2nn(C)cc2-c2ccccc2F)c2ccccc2)c1 (centres unmarked) , result: > 120 µM
